# EXPERIMENTAL_TARGET: Prothrombin (Homo sapiens)
MEASURED_QUANTITY: log10 IC50 (log10 of the value in nM)

[[record]]
structure_as_smiles = "Cc1ccc(C[C@H](NC(=O)[C@@H](C)NC(=O)[C@@H]2CCCN2C(=O)[C@@H]2C[C@@H]3CCCC[C@@H]3N2C(=O)Cc2ccc(C(=N)N)cc2)C(N)=O)cc1"
experimental_target = "Prothrombin (Homo sapiens)"
measured_quantity = "log10 IC50"
readout_value = 2.65

[[record]]
structure_as_smiles = "Cc1ccc(C[C@H](NC(=O)[C@@H](C)NC(=O)[C@@H]2CCCN2C(=O)[C@@H]2C[C@@H]3CCCC[C@@H]3N2C(=O)[C@H]2CC[C@@H](N=C(N)N)CC2)C(N)=O)cc1"
experimental_target = "Prothrombin (Homo sapiens)"
measured_quantity = "log10 IC50"
readout_value = 4.29

[[record]]
structure_as_smiles = "Cc1ccc(C[C@H](NC(=O)[C@@H](C)NC(=O)[C@@H]2CCCN2C(=O)[C@@H]2C[C@@H]3CCCC[C@@H]3N2C(=O)c2ccc(NC(=N)N)cc2)C(N)=O)cc1"
experimental_target = "Prothrombin (Homo sapiens)"
measured_quantity = "log10 IC50"
readout_value = 2.76

[[record]]
structure_as_smiles = "Cc1ccc(C[C@H](NC(=O)[C@@H](C)NC(=O)[C@@H]2CCCN2C(=O)[C@@H]2C[C@@H]3CCCC[C@@H]3N2C(=O)[C@H](C)CCCN=C(N)N)C(N)=O)cc1"
experimental_target = "Prothrombin (Homo sapiens)"
measured_quantity = "log10 IC50"
readout_value = 4.99

[[record]]
structure_as_smiles = "Cc1ccc(C[C@H](NC(=O)[C@@H](C)NC(=O)[C@@H]2CCCN2C(=O)[C@@H]2C[C@@H]3CCCC[C@@H]3N2C(=O)c2ccc(C(=N)N)cc2)C(N)=O)cc1"
experimental_target = "Prothrombin (Homo sapiens)"
measured_quantity = "log10 IC50"
readout_value = 2.71


----------
# EXPERIMENTAL_TARGET: Prothrombin (Homo sapiens)
# TEST_NAME: Inhibition of human alpha-thrombin using sarcosine-Pro-Arg-p-nitroanilide as substrate preincubated for 5 mins before substrate addition measured after 10 mins by spectrophotometry
MEASURED_QUANTITY: IC50 (µM)

[[record]]
structure_as_smiles = "Cc1ccc(C[C@H](NC(=O)[C@@H](C)NC(=O)[C@@H]2CCCN2C(=O)[C@@H]2C[C@@H]3CCCC[C@@H]3N2C(=O)Cc2cccc(C(=N)N)c2)C(N)=O)cc1"
readout_value = 26.2

[[record]]
structure_as_smiles = "Cc1ccc(C[C@H](NC(=O)[C@@H](C)NC(=O)[C@@H]2CCCN2C(=O)[C@@H]2C[C@@H]3CCCC[C@@H]3N2C(=O)[C@H](N)CCCN=C(N)N)C(N)=O)cc1"
readout_value = 4.4

[[record]]
structure_as_smiles = "Cc1ccc(C[C@H](NC(=O)[C@@H](C)NC(=O)[C@@H]2CCCN2C(=O)[C@@H]2C[C@@H]3CCCC[C@@H]3N2C(=O)c2cccc(C(=N)N)c2)C(N)=O)cc1"
readout_value = 1.03

